- assayed_system: MMP-13 (Homo sapiens)
- Construct: catalytic domain (^104Tyr˜^267Gly) was amplified with RT-PCR; His-tag; enterokinase digestion-site; made in house; host or cells: Escherichia coli
- assay_comment: Assay for inhibitory activities on MMPs (fluorogenic peptide substrate), MMP-13
- Type: biochemical
- recorded_conditions: catalytic domain 104Tyr-267Gly; substrate MOCAc-Pro-Leu-Gly-Leu-A2Pr(DNP)-Ala-Arg-NH2
Provide the recorded IC50 for the entries that follow.
Write the value in nM as a bare number.

Query: May I ask what IC50 has been recorded for `CSCC[C@@H](NS(=O)(=O)c1ccc(-c2ncc(-c3ccc(Cl)cc3)s2)cc1)C(=O)O` ?
Response: 11

Query: May I ask what IC50 has been recorded for `O=C(O)[C@@H](Cc1ccccc1)NS(=O)(=O)c1ccc(-c2ncc(-c3ccc(F)cc3)s2)cc1` ?
Response: 12.1

Query: May I ask what IC50 has been recorded for `CC(C)[C@@H](NS(=O)(=O)c1ccc(-c2ncc(-c3ccc(Br)cc3)s2)cc1)C(=O)O` ?
Response: 3.38

Query: May I ask what IC50 has been recorded for `CSCC[C@@H](NS(=O)(=O)c1ccc(-c2ncc(-c3ccccc3)s2)cc1)C(=O)O` ?
Response: 17.5
